# Tested on: C. trachomatis L2/434/Bu expressing GFP (CTL2-GFP)
# Construct: L2/434/Bu GFP intracellular growth in HeLa cells
# ASSAY: microbe, parasite or virus in culture
# Design: C. trachomatis total inclusion area by high-content imaging, normalised to DMSO
# TEST_CONDITIONS: Chlamydia trachomatis, HeLa, 28.5 h; total inclusion area; read-out: % of control remaining
Measured activity at 1 µM accompanies every entry in the list below.
ASSAY_ENDPOINT: activity at 1 µM

In [3]: df
Out[3]:
                                    compound  recorded_result
 0  O=C(N/N=C/c1c(O)ccc2ccccc12)c1ccc(CO)nc1             112%
 1  CCC(Sc1nnc2c(n1)[nH]c1ccccc12)C(=O)N1c2ccccc2Sc2ccccc21 (stereo not shown)            32.8%
 2  COc1ccc(CC(=O)N2CCCC(c3nc(C)c4c(n3)N(CC3CC3)CCC4)C2)cc1 (stereo not shown)            88.7%
 3  O=C(O)c1cn(C2CC2)c2cc(N3CCN(C(=O)Cc4ccccc4Cl)CC3)c(F)cc2c1=O             145%
 4  CC1=NN(c2ccc(C)cc2)C(=O)/C1=C\Nc1ccc(S(=O)(=O)Nc2nc(C)cc(C)n2)cc1            91.7%
 5  Cc1cc(C(=O)Nc2cccc(S(=O)(=O)N3CCOCC3)c2)sc1-c1ccccc1             107%
 6  Cc1cccc(N(C)S(=O)(=O)c2ccc(N3CCCNCC3)c3ccccc23)c1C [CBK004430C]             121%
 7  CCC(c1ccc(F)cc1)N(C)C(=O)Cn1cc(C(=O)NC2CCCCC2)ccc1=O (stereo not shown)             114%
 8  O=C(Nc1ccc(OC(F)(F)F)cc1)Nc1cc(-c2cccs2)n[nH]1            96.5%
 9  O=C(NCCc1c[nH]c2ccc(Cl)cc12)c1c(F)ccc(Cl)c1F            92.7%
10         c1ccc(Oc2cccc(OCCCN3CCCCC3)c2)cc1             122%
11  O=C(Nc1cc(Cl)nc(Cl)c1)N(Cc1ccc(-c2ccccc2)cc1)CC1CCNCC1            62.1%
12          COc1cc(N)c2ncccc2c1 [CBK011972C]              85%
13              Cc1ccc(CNC(=O)OCc2cccnc2C)o1             120%
14  NCCCNc1ncc(C(=O)NCc2ccccc2)c(NCC2CCCCC2)n1            95.7%
15  O=C(CC1SC(Nc2ccc(O)cc2)=NC1=O)c1ccccc1 (stereo not shown)            84.6%
16  OC(CN1CCN(Cc2ccccc2)CC1)Cn1c2ccc(Br)cc2c2cc(Br)ccc21 (stereo not shown)             102%
17  c1ccc2c3c([nH]c2c1)C1(CCN(CCC2CCCCC2)C1)OCC3 (stereo not shown)            51.4%
18  CN1CCCN(c2ccc(NS(=O)(=O)c3cccc(F)c3)c3ccccc23)CC1 [CBK200010C]            77.8%
19  CC(C)NCC(O)Cn1c2c(c3ccccc31)CCc1c-2cnn1-c1ccccc1 (stereo not shown)             102%
20  CC(=O)Nc1ccc(S(=O)(=O)Nc2ccc(C(=O)Nc3ccc(F)cc3)cc2)cc1             114%
21  O=C(Nc1ccc(F)c(F)c1)NC1CCC2CN(CCOc3ccccc3)CC2C1 (stereo not shown) [CBK083365T]            35.6%
22  COc1cc(CN2CCNCC2)c2ccn(S(=O)(=O)c3cccc(Cl)c3C)c2c1 [CBK144484T]            90.6%
23  Cc1ccc(Nc2ncc(C(=O)NCCCN3CCN(c4cccc(Cl)c4)CC3)c3ccccc23)cc1Cl            93.1%
24  CC(C)Nc1nc2cc(Cl)c(Cl)cc2nc1Sc1cccc(O)c1             129%
25  COc1ccccc1N/C(=N\OCc1ccc(Cl)cc1Cl)c1nonc1N            89.5%
26  COCC(=O)N[C@H]1C[C@H]2C(=O)Nc3ccc(/C=C/c4ccccc4)cc3C(=O)N2C1             105%
27  C[C@@H]1CN(c2ccc(C(F)(F)F)c(OCc3ccccc3)n2)CCN1 [CBK003987A]            70.4%
28  CCC(=O)N1CCCc2cc(C(O)CN3CCN(c4ccc(F)cc4)CC3)ccc21 (stereo not shown)             104%
29      Cc1nc(C(=N)N)nc2ccccc12 [CBK010368C]            60.8%
30                   Cn1cncc1C(=O)NCc1ccccc1             111%
